B1: PCDHGA10 (parent)
chain: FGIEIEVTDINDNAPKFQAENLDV

# Variants of: B1
# Measurement protocol: protein stability index of a GFP-peptide fusion (GPS, HEK-293T) (PSI 1-6); higher = more stable;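 note: lentivirally expressed fusions sorted by FACS into six bins by GFP to DsRed ratio, PSI derived from sequencing read proportions per bin multiplied by bin number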
# Condition description: c terminus: a fixed tail appended
Provide the reported protein stability index of each item.
Give bare numbers.

Example variants with recorded protein stability index:
# Alteration, protein stability index
records = [
    ("N13V", 2.27),
    ("G2I", 2.57),
    ("N13P", 2.83),
    ("D12C", 1.8),
    ("L22H", 3.4),
]

# return protein stability index for each item in the list
1. A14E
2. D12G
3. V24H

OUT:
[3.83, 2.58, 3.6]

For each of the variants below, note its protein stability index.
1. E6W
2. A14L
3. K16L
4. G2P
5. E20V
6. I3V
7. G2S

OUT:
1: 2.9; 2: 1.98; 3: 2.31; 4: 4.63; 5: 1.91; 6: 3.65; 7: 1.92

Give one value of protein stability index per listed variant.
1. I3C
2. N13Q
3. F17K
4. N11Q
5. T8W
6. N11D
7. D12K
8. I3G

OUT:
1. 4.43
2. 3.21
3. 4.42
4. 2.52
5. 2.27
6. 3.54
7. 2.98
8. 4.73

Could you report protein stability index for every entry in the following list?
1. L22D
2. G2V
3. V7R
4. A14H

OUT:
4.21
1.64
4.14
2.79

These measurements were taken from the supplement of paper PMC10567573.
